Data credit: patent US20080318989A1

Reported pIC50 for target or system Aurora A (Homo sapiens, UniProt O14965), by entry.
pIC50: −log10 of the molar value.
outcome-measure: pIC50

P: CCN1C(=O)C(C)(C)c2cc(Nc3ncc(F)c(Nc4ccc(C(=O)Nc5ccccn5)cc4)n3)ccc21 [compound 26]
Q: O=C(Nc1ccccc1Nc1nc(Nc2ccc3c(c2)CS(=O)(=O)C3)ncc1Cl)C1CC1 [compound 58]
R: COCCN1C(=O)C(C)(C)c2cc(Nc3ncc(F)c(Nc4ccccc4NC(=O)C4CC4)n3)ccc21 [compound 38]
input: Hello, I need these entries ordered by pIC50, highest reading first. Thanks! Write the labels in rank order as requested.
output: Q, R, P
(Q: 9.22, R: 8.14, P: 7.64)

###

# Test system: HT29 colon cancer cell line
# protocol-notes: Cellular proliferation/viability assay (Cell-Titer-Glo), HT29
# Format: cell-based
# condition-info: Homo sapiens, HT-29, 120 h; HT29, 5 days incubation
outcome-measure: IC50 (nM)
Give your result in nM as a bare value.

Reported IC50 for `CCN1C(=O)C(C)(C)c2cc(Nc3ncc(Cl)c(Nc4ccccc4NC(=O)/C=C/c4ccccc4)n3)ccc21` was 100
